Tested on: SR leukemia
Assay: NCI tumour cell line growth inhibition, 48 h
Hi there, I'd appreciate the recorded TGI for every entry that follows.

IN: Which TGI value belongs to `C[n+]1noc(/N=N\[O-])c1-c1cc(-c2c(/N=N\[O-])on[n+]2C)cc(-c2c(/N=N/[O-])on[n+]2C)c1` ?
OUT: > 100 µM

IN: Which TGI value belongs to CC1=CCC2(C#N)CCC1C2O (stereo not given) ?
OUT: > 100 µM

IN: Which TGI value belongs to `COc1ccc(N(C)CN(C)c2nc(N(C)C)nc(N(C)C)n2)cc1` ?
OUT: > 100 µM

IN: Which TGI value belongs to `CCN(CC)C(=O)CC1=C(C)/C(=C/c2[nH]c(-c3ccc[nH]3)cc2OC)N=C1C` ?
OUT: 0.994 µM

IN: Which TGI value belongs to CC1(C)CC(=O)/C(=C/C2CCNC2=S)C(=O)N1 (stereo not given) ?
OUT: > 100 µM

IN: Which TGI value belongs to `COc1cccc(C(=O)Nc2ccc(CN3CCc4nc5cc(OC)c(OC)cc5cc43)cc2)c1` ?
OUT: 9.64 µM

IN: Which TGI value belongs to `C=C(C)[C@@H]1C[C@H]2O[C@](O)(C(=C)CC(=O)/C=C(/C)C[C@@H]3OC(=O)[C@]24O[C@@H]34)[C@H]1O` ?
OUT: > 100 µM

IN: Which TGI value belongs to `CC(C)(C)N/N=C(\Cc1occc(=O)c1O)C(=O)Nc1ccc([N+](=O)[O-])cc1[N+](=O)[O-]` ?
OUT: > 100 µM

IN: Which TGI value belongs to `CN(C)c1ccc(-c2ccc(-c3ccc(C(=N)N)c(F)c3)s2)cc1` ?
OUT: 0.692 µM

IN: Which TGI value belongs to C=C[C@@]1(C)CCC2(O)C(CCC3C2(C)CCC[C@@]3(C)COC(=O)CC(=O)OC)C1 (stereo not given in full) ?
OUT: 43.9 µM

IN: Which TGI value belongs to O=C(/C=C/C12c3ccccc3C(c3ccccc31)C1C(=O)N(c3ccccc3)C(=O)C12)c1ccc(Cl)cc1 (stereo not given) ?
OUT: > 100 µM

IN: Which TGI value belongs to `O=C(Cn1c(=O)c(-c2ccccc2)nc2ccccc21)c1ccc(Cl)cc1` ?
OUT: > 100 µM

IN: Which TGI value belongs to `N#Cc1nc(C2CC2)oc1N` ?
OUT: > 100 µM

IN: Which TGI value belongs to COc1ccc(N)c(C(O)CCNC(C)=O)c1 (stereo not given) ?
OUT: > 100 µM

IN: Which TGI value belongs to `O=[N+]([O-])c1cc([N+](=O)[O-])c(Cl)c(Cl)c1Cl` ?
OUT: 5.86 µM

IN: Which TGI value belongs to O=c1[nH]c(=O)n(C2CC(O)C(CO)O2)cc1OCCc1ccccc1 (stereo not given) ?
OUT: > 100 µM

IN: Which TGI value belongs to `CN1CCC(CNC(=O)CCCCCCCCC(=O)NCC2(c3ccccc3)CCN(C)CC2)(c2ccccc2)CC1` ?
OUT: > 100 µM

IN: Which TGI value belongs to `O=C(N/C(=C\c1ccccc1[N+](=O)[O-])c1nc2ccccc2[nH]1)c1ccccc1` ?
OUT: > 100 µM

IN: Which TGI value belongs to `COc1ccc(OC)c([N+](=O)[O-])c1-c1nc2sccn2c1/C=N/N=C(N)N` ?
OUT: > 100 µM

IN: Which TGI value belongs to Cc1cccc(-n2c(C)nc3ccc(NC4OC(CO)C(O)C(O)C4O)cc3c2=O)c1 (stereo not given) ?
OUT: > 100 µM
